- Assay protocol: Phototoxicity against human HaCaT cells assessed as reduction in cell viability after irradiation with white light at 120 J/cm'2 for 20 mins by MTT assay
- Format: functional, cell-based
- Measurement setup: light or radiation study
Would you mind telling me the reported pIC50 of each entry?
Units for pIC50: none; it is -log10 of a concentration expressed in mol/L.

Task item: Entry `C[n+]1ccc(Sc2c(F)c(F)c(-c3c4nc(c(-c5c(F)c(F)c(Sc6cc[n+](C)cc6)c(F)c5F)c5ccc([nH]5)c(-c5c(F)c(F)c(Sc6cc[n+](C)cc6)c(F)c5F)c5nc(c(-c6c(F)c(F)c(Sc7cc[n+](C)cc7)c(F)c6F)c6ccc3[nH]6)C=C5)C=C4)c(F)c2F)cc1.[I-].[I-].[I-].[I-]` : reported pIC50 = ?
Reply: 6.62

Task item: `C[n+]1ccc(-c2c3nc(c(-c4ccccc4)c4ccc([nH]4)c(-c4ccccc4)c4nc(c(-c5ccccc5)c5ccc2[nH]5)C=C4)C=C3)cc1.[I-]` , same question.
Reply: 6.22

Task item: `C[n+]1ccc(-c2c3nc(c(-c4cc[n+](C)cc4)c4ccc([nH]4)c(-c4cc[n+](C)cc4)c4nc(c(-c5ccccc5)c5ccc2[nH]5)C=C4)C=C3)cc1.[I-].[I-].[I-]` , same question.
Reply: 7.17

Task item: `C[n+]1ccc(-c2c3nc(c(-c4ccccc4)c4nc(c(-c5cc[n+](C)cc5)c5ccc([nH]5)c(-c5ccccc5)c5ccc2[nH]5)C=C4)C=C3)cc1.[I-].[I-]` , same question.
Reply: 6.87

Task item: `C[n+]1ccc(-c2c3nc(c(-c4cc[n+](C)cc4)c4ccc([nH]4)c(-c4cc[n+](C)cc4)c4nc(c(-c5cc[n+](C)cc5)c5ccc2[nH]5)C=C4)C=C3)cc1.[I-].[I-].[I-].[I-]` , same question.
Reply: 7.23

Task item: `C[n+]1ccc(-c2c3nc(c(-c4ccccc4)c4ccc([nH]4)c(-c4ccccc4)c4nc(c(-c5cc[n+](C)cc5)c5ccc2[nH]5)C=C4)C=C3)cc1.[I-].[I-]` , same question.
Reply: 7.28

---

- Assay protocol: Photostability of compound in aqueous media assessed as amount of soret band remaining after irradiation with white light at 100 mW/cm'2 for 30 mins by UV-spectrophotometric analysis
- Format: physicochemical
- Measurement setup: read-out: Stability
Would you mind telling me the reported remaining at 0.5 h of each entry?
Just the number please, in %, no unit attached.

Task item: Entry `O=[N+]([O-])c1ccc(-c2c3nc(c(-c4ccccc4)c4ccc([nH]4)c(-c4ccccc4)c4nc(c(-c5ccccc5)c5ccc2[nH]5)C=C4)C=C3)cc1` : reported remaining at 0.5 h = ?
Reply: 96

Task item: `O=[N+]([O-])c1ccc(-c2c3nc(c(-c4ccccc4)c4ccc([nH]4)c(-c4ccc([N+](=O)[O-])cc4)c4nc(c(-c5ccccc5)c5ccc2[nH]5)C=C4)C=C3)cc1` , same question.
Reply: 97

Task item: `CC(=O)Oc1ccc(-c2c3nc(c(-c4ccc(OC(C)=O)cc4)c4ccc([nH]4)c(-c4ccc(OC(C)=O)cc4)c4nc(c(-c5ccc(OC(C)=O)cc5)c5ccc2[nH]5)C=C4)C=C3)cc1` , same question.
Reply: 83

---

- Assay protocol: Induction of singlet oxygen production assessed as amount of DPiBF remaining after irradiation with light at 9 mW/cm'2 for 30 mins by DPiBF photooxidation based spectrophotometric analysis (reference value: 80%)
- Type: physicochemical
- Measurement setup: 0.5 h
Please assign NOT MET whenever Activity is at or above 20%, and MET whenever it is below.

Task item: Is Activity of `C1=Cc2nc1c(-c1ccc3ccccc3c1)c1ccc([nH]1)c(-c1ccc3ccccc3c1)c1nc(c(-c3ccc4ccccc4c3)c3ccc([nH]3)c2-c2ccc3ccccc3c2)C=C1` strictly below 20%?
Reply: NOT MET

Task item: `O=S(=O)([O-])c1ccc(-c2c3nc(c(-c4ccc(S(=O)(=O)[O-])cc4)c4ccc([nH]4)c(-c4ccc(S(=O)(=O)[O-])cc4)c4nc(c(-c5ccc(S(=O)(=O)[O-])cc5)c5ccc2[nH]5)C=C4)C=C3)cc1.[Na+].[Na+].[Na+].[Na+]` , same question.
Reply: NOT MET

Task item: `C[n+]1ccc(-c2c3nc(c(-c4cc[n+](C)cc4)c4ccc([nH]4)c(-c4cc[n+](C)cc4)c4nc(c(-c5cc[n+](C)cc5)c5ccc2[nH]5)C=C4)C=C3)cc1.[I-].[I-].[I-].[I-]` , same question.
Reply: NOT MET

Task item: `O=[N+]([O-])c1ccc(-c2c3nc(c(-c4ccccc4)c4ccc([nH]4)c(-c4ccc([N+](=O)[O-])cc4)c4nc(c(-c5ccccc5)c5ccc2[nH]5)C=C4)C=C3)cc1` , same question.
Reply: NOT MET

Task item: `Nc1ccc(-c2c3nc(c(-c4ccccc4)c4ccc([nH]4)c(-c4ccccc4)c4nc(c(-c5ccccc5)c5ccc2[nH]5)C=C4)C=C3)cc1` , same question.
Reply: NOT MET

Task item: `C[n+]1ccc(-c2c3nc(c(-c4ccccc4)c4ccc([nH]4)c(-c4ccccc4)c4nc(c(-c5ccccc5)c5ccc2[nH]5)C=C4)C=C3)cc1.[I-]` , same question.
Reply: MET

Task item: `CC(=O)Oc1ccc(-c2c3nc(c(-c4ccc(OC(C)=O)cc4)c4ccc([nH]4)c(-c4ccc(OC(C)=O)cc4)c4nc(c(-c5ccc(OC(C)=O)cc5)c5ccc2[nH]5)C=C4)C=C3)cc1` , same question.
Reply: NOT MET

Task item: `C[n+]1ccc(Sc2c(F)c(F)c(-c3c4nc(c(-c5c(F)c(F)c(Sc6cc[n+](C)cc6)c(F)c5F)c5ccc([nH]5)c(-c5c(F)c(F)c(Sc6cc[n+](C)cc6)c(F)c5F)c5nc(c(-c6c(F)c(F)c(Sc7cc[n+](C)cc7)c(F)c6F)c6ccc3[nH]6)C=C5)C=C4)c(F)c2F)cc1.[I-].[I-].[I-].[I-]` , same question.
Reply: NOT MET

Task item: `C[n+]1ccc(-c2c3nc(c(-c4cc[n+](C)cc4)c4ccc([nH]4)c(-c4cc[n+](C)cc4)c4nc(c(-c5ccccc5)c5ccc2[nH]5)C=C4)C=C3)cc1.[I-].[I-].[I-]` , same question.
Reply: MET
